System: P388 leukemia ip, CD2F1 mice, survival T/C
Test: NCI In Vivo Anticancer Drug Screen. Data for tumor model P388 Leukemia (intraperitoneal) in CD2F1 (CDF1) mice
Conditions: endpoint: median survival time; dose: 6.25 mg/kg/injection; schedule: Q01DX009 (ip); vehicle: water
Inconclusive results and toxic doses are left out. How the source made its calls: active means survival T/C of 150% or more; inactive means T/C below 125% in these data.
Outcome codes: active, inactive

> print(dat)
                                   molecule  assigned.class
1                    O=C(O)c1nnc(C(=O)O)nn1        inactive
2  C[n+]1c(-c2cccc(OCCOCCOc3cccc(-c4c5cc(N)ccc5c5ccc(N)cc5[n+]4C)c3)c2)c2cc(N)ccc2c2ccc(N)cc21        inactive
3          O=NNc1ncc(Sc2ccccc2)nc1Sc1ccccc1        inactive
4          Cc1cnc(/C=N\NC(N)=S)c2cccc(N)c12          active
5  O=C1C2CC=CCC2C(=O)N1CC[P+](c1ccccc1)(c1ccccc1)c1ccccc1 (stereo not given)        inactive
